Provenance of the data: patent US9581587B2

Test system: sperm
Experiment: Post thaw DNA fragmentation Elk (Example 3)
Assay type: cell-based
Settings: post thaw 48 HR
readout_name: DNA fragmentation Post Sort (%)
Field format: number, assumed %, no unit text.

Please report the recorded DNA fragmentation Post Sort for "O=S(=O)([O-])c1ccc(N=Nc2c(O)ccc3cc(S(=O)(=O)[O-])ccc23)cc1.[Na+].[Na+]" .
0.3

* * *

Let's look at some compounds and their measured Dead Intensity.
Tested on: membrane compromised sperm
Test: Dead gate intensity divided by live gate intensity, flow cytometer (Example 5)
Assay type: cell-based
Details: dye 125 μM; Average over Hoechst levels
Field format: number, assumed %, no unit text.

compound: O=C([O-])C1=NN(c2ccc(S(=O)(=O)[O-])cc2)C(=O)/C1=N/Nc1ccc(S(=O)(=O)[O-])cc1.[Na+].[Na+].[Na+]
system: membrane compromised sperm
u: %
Dead Intensity: 57
--
compound: COc1cc(S(=O)(=O)O)c(C)cc1N=Nc1c(O)ccc2cc(S(=O)(=O)O)ccc12 [Red 40, reference compound]
system: membrane compromised sperm
u: %
Dead Intensity: 38
--
compound: O=S1(=O)OC(c2ccc(O)cc2)(c2ccc(O)cc2)c2ccccc21
system: membrane compromised sperm
u: %
Dead Intensity: 79

We now examine a further compound.
Please report the recorded Dead Intensity for "O=S(=O)([O-])c1ccc(N=Nc2c(O)ccc3cc(S(=O)(=O)[O-])ccc23)cc1.[Na+].[Na+]" .
39

* * *

Tested on: sperm
Experiment: Post thaw DNA fragmentation Elk (Example 3)
Type: cell-based
Details: post thaw 48 HR
readout_name: DNA fragmentation Pre-sort

API: value(readout=DNA fragmentation Pre-sort, system=sperm) for record "O=S(=O)([O-])c1ccc(N=Nc2c(O)ccc3cc(S(=O)(=O)[O-])ccc23)cc1.[Na+].[Na+]"
3.7%

* * *

System: sperm
Assay: Post thaw DNA fragmentation Elk (Example 3)
Type: cell-based
Conditions: elk, 0 h
readout_name: DNA fragmentation Post Sort (%)
Field format: number, assumed %, no unit text.

Please report the recorded DNA fragmentation Post Sort for COc1cc(S(=O)(=O)O)c(C)cc1N=Nc1c(O)ccc2cc(S(=O)(=O)O)ccc12 [Red 40, reference compound] .
0

* * *

Test system: sperm
Assay: Post thaw DNA fragmentation Elk (Example 3)
Type: cell-based
Details: elk, 24 h
Method: Each of deer and elk were collected in the Tris-egg yolk catch fluid described as a catch media in Example 1, and shipped for sorting. A portion of each of the deer and the elk were stained by the red food dye No. 40 treatment 40% with 16 μL Hoechst 33342 and the yellow food dye No. 6 treatment with 14 μL Hoechst 33342 as described in Example 1. Samples were each bulk sorted with the same machine and parameters described in Example 1. […]
readout_name: DNA fragmentation Pre-sort (%)
Field format: number, assumed %, no unit text.

Please report the recorded DNA fragmentation Pre-sort for COc1cc(S(=O)(=O)O)c(C)cc1N=Nc1c(O)ccc2cc(S(=O)(=O)O)ccc12 [Red 40, reference compound] .
5.6

* * *

Test system: membrane compromised sperm
Assay: Dead gate intensity divided by live gate intensity, flow cytometer (Example 5)
Format: cell-based
Conditions: dye 62.5 μM; Average over Hoechst levels
Let's look at some molecules and their measured Dead Intensity.
Field format: number, assumed %, no unit text.

Here is how some molecules turned out for Dead Intensity.
molecule: COc1cc(S(=O)(=O)O)c(C)cc1N=Nc1c(O)ccc2cc(S(=O)(=O)O)ccc12 [Red 40, reference compound]
Dead Intensity [%]: 52

molecule: O=C([O-])C1=NN(c2ccc(S(=O)(=O)[O-])cc2)C(=O)/C1=N/Nc1ccc(S(=O)(=O)[O-])cc1.[Na+].[Na+].[Na+]
Dead Intensity [%]: 74

molecule: O=S(=O)([O-])c1ccc(N=Nc2c(O)ccc3cc(S(=O)(=O)[O-])ccc23)cc1.[Na+].[Na+]
Dead Intensity [%]: 51

We now examine a further molecule.
Please report the recorded Dead Intensity for "O=S1(=O)OC(c2ccc(O)cc2)(c2ccc(O)cc2)c2ccccc21" .
87
